Molecular target: Glycogen synthase kinase-3 (Sus scrofa, UniProt B2LUN4+I6LNT8)
Assay: Inhibition of porcine brain GSK-3 alpha/beta using GS-1 substrate after 30 mins by scintillation and luminescence counting method in the presence of [gamma-33P]ATP
Measured IC50, listed per entry.
Dear colleague, please return just the value in µM, with no unit written.

Sample answers from the record:
# chemical.string, IC50 / µM
measured = [
    ("c1cc2c(c(-c3nc4cccnn4c3-c3ccncc3)c1)OCO2", 3.5),
    ("CN1CCN(c2ccc3nc(-c4cccc5c4OCO5)c(-c4ccncc4)n3n2)CC1", 5.4),
]

Qu. Could you tell me which IC50 is on file for CN1CCN(c2ccc3nc(-c4cccc5c4OCO5)c(-c4ccccc4)n3n2)CC1 ?
Ans. 2.2

----------
Tested on: Toxoplasma gondii
Assay: Antiparasitic activity against Toxoplasma gondii RH tachyzoite expressing beta-galactosidase assessed as inhibition of tachyzoite invasion into human foreskin fibroblast host cells after 96 hrs by colorimetric microtitre assay
Type: functional, organism-based
Measured EC50, listed per entry.
Dear colleague, please return just the value in nM, with no unit written.

Sample answers from the record:
# chemical.string, EC50, nM
rows = [
    ("CN1CCN(c2ccc3nc(-c4cccc(-c5ccccc5)c4)c(-c4ccncc4)n3n2)CC1", 1000),
    ("COc1ccc2c(-c3nc4ccc(N5CCN(C)CC5)nn4c3-c3ccncc3)cccc2c1", 2210),
    ("CN1CCN(c2ccc3nc(-c4ccc5c(c4)OCCO5)c(-c4ccncc4)n3n2)CC1", 490),
]

Qu. Could you tell me which EC50 is on file for CN1CCN(c2ccc3nc(-c4cccc5c4OCO5)c(-c4ccncc4)n3n2)CC1 ?
Ans. 100

Qu. Could you tell me which EC50 is on file for CN1CCN(c2ccc3nc(-c4cccc(-c5ccsc5)c4)c(-c4ccncc4)n3n2)CC1 ?
Ans. 610

Qu. Could you tell me which EC50 is on file for CCOc1ccc2c(-c3nc4ccc(N5CCN(C)CC5)nn4c3-c3ccncc3)cccc2c1 ?
Ans. 1710

----------
System: Toxoplasma gondii
Experiment: Antiparasitic activity against Toxoplasma gondii RH tachyzoite expressing beta-galactosidase assessed as inhibition of tachyzoite invasion into human foreskin fibroblast host cells after 96 hrs by colorimetric microtitre assay
Type: functional, organism-based
pEC50: −log10 of the molar value.
measurement.kind: pEC50

Sample answers from the record:
# chemical.string, measured.target, pEC50
rows = [
    ("CN1CCN(c2ccc3nc(-c4cccc5c4OCO5)c(-c4cccnc4)n3n2)CC1", "Toxoplasma gondii", "< 5.30"),
    ("CN1CCN(c2ccc3nc(-c4ccc(C(=O)N5CCOCC5)cc4)c(-c4ccncc4)n3n2)CC1", "Toxoplasma gondii", "< 5.30"),
]

As a next step, examine the compound that follows.
Qu. Could you tell me which pEC50 is on file for CN1CCN(c2ccc3nc(-c4ccc(-c5ccccc5)cc4)c(-c4ccncc4)n3n2)CC1 ?
Ans. < 5.30
